Target: T1, recombinant His6-tagged extracellular domain of human Clec4C (C-type lectin domain family 4, member C) (human, UniProt Q8WTT0 44-213)
T1 construct: Same antigen for immunisation, panning and ELISA; also called His-Clec4C(EC); pMET7-SIgK-His-Clec4C(EC)
T1 sequence: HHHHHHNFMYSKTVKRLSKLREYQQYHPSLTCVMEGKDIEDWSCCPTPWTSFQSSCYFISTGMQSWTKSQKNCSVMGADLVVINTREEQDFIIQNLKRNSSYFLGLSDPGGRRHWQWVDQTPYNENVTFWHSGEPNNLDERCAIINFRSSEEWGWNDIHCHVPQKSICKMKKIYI
Experiment: ELISA, antigen-coated vs uncoated blocked wells
Measured ELISA ratio coated/uncoated by item
Returns: the value as a bare number; no unit string appended.

These recorded examples may help you get a feel for the data.
>  <BINDER>
2CL43 (VHH, pMECS VHH-HA-His6; TG1 periplasmic extract) VHH: QVQLQESGGGTVQPGESLRLSCEVSTDTFSSLAMAWFRQATGKDREFVAAISWSGASTVYGDSVKGRFTMTRDHPKKMVYLQMDNLKPEDTAVYYCAGDLDGRTWHGDDLEYDYWGQGTQVTVSS

>  <ELISA ratio coated/uncoated>
12.1

$$$$
>  <BINDER>
1CL82 (VHH, pMECS VHH-HA-His6; TG1 periplasmic extract) VHH: QVQLQESGGGSVQAGDSLRLSCVAPGREISSPAMGWFRQAPGKEREFVATINWSSGATLTADSVKGRFTIFKDVEKNTVYLQMNSLRPEDTAVYSCAAGATGVFRIARAYSYWGQGTQVTVSS

>  <ELISA ratio coated/uncoated>
6.23

$$$$
>  <BINDER>
2CL89 (VHH, pMECS VHH-HA-His6; TG1 periplasmic extract) VHH: QVQLQESGGGTVQPGESLRLSCEVSTDTFSSLAMAWFRQATAKDREFVAAISWSGDSTVYGDSVKGRFTMTRDHPKKMVYLQMDNLKPEDTAVYYCAGDLDGRTWHGDDLEYDYWGQGTQVTVSS

>  <ELISA ratio coated/uncoated>
10.7

$$$$

Next, consider the following binder.
Specify measured ELISA ratio coated/uncoated for 2CL58 (VHH, pMECS VHH-HA-His6; TG1 periplasmic extract) VHH: QVQLQESGGGLVQAGDSLRLSCAASGDTFSMYAMGWFRQAPGKEREFVAAISRSGSSTNYRDSVKGRFTISRDNDLNAGYLQMNSLKPEDTAVYYCALRLTFSTTTTYTGELQYPYWGQGTQVTVSS . 4.66
